Target: T1, hIL-6R-hFc (human, UniProt P08887 20-358)
T1 construct: also called dimeric hIL-6R; Dimer; not shown: human Fc (hFc)
T1 sequence: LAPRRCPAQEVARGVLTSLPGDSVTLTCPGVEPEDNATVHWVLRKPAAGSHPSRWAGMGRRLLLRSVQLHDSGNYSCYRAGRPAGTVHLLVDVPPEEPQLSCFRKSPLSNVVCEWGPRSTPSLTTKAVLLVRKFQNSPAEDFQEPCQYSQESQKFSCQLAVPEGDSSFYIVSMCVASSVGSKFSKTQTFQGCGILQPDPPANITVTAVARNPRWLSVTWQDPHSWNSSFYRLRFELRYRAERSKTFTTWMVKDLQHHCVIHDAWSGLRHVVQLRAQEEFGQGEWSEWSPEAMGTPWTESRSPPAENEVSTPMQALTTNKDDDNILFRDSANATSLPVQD
Test: competition ELISA: antibody premixed with serial dilutions of hIL-6R-hFc, free antibody detected on hIL-6R-hFc-coated plate
pIC50: −log10 of the molar value.
Hi, to clarify the labels: T covers pIC50 from 10 upward, F covers anything below 10.

// known answers, use as guide
[
  {
    "Binder": "VV6C10-1 (antibody, V domains shown, Human variable regions with mouse constant region) VH: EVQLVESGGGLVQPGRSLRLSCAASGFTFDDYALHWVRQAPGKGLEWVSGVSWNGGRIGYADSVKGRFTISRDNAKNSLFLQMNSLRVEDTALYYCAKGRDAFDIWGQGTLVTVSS VL: EIVLTQSPATLSLSPGERATLSCRASQSVSSYLAWYQQKPGQAPRLLIYDASNRATGIPARFSGSGSGTDFTLTISSLEPEDFAFYYCQQRNNRPPFTFGPGTKVDVR",
    "Assigned Class": "T"
  },
  {
    "Binder": "248982-13-1-E5 (antibody, V domains shown) VH: QVQLVQSGGDLVQPGRSLRLSCAASGFTFDDYAMHWVRQTPGKGLEWVSGISWNSGAIGYADSVKGRFTISRDNAKNSLYLQMNSLRAEDTALYYCTKEEVGATVDYFYFYGMDVWGQGTTVTVSS VL: EIVMTQSPATLSLSPGERATLSCWASQSVSNYLAWYQQKPGQAPRLLIYDASNRATGIPARFSGSGSGTDFTLTISSLEPEDFAVYYCQQRSNWPTFGQGTKVEIK",
    "Assigned Class": "F"
  },
  {
    "Binder": "VV6C10-3 (antibody, V domains shown, Human variable regions with mouse constant region) VH: QVQLVQSGAEVKKPGASVKVSCKASGFNFFHYGITWVRQAPGQGLEWMGWISTYNGDTIYAQKVQGRVTMTTDTATSTAYMELRSLRSDDTAVYYCARSEQQVDYYFYGMDVWGQGTTVTVSS VL: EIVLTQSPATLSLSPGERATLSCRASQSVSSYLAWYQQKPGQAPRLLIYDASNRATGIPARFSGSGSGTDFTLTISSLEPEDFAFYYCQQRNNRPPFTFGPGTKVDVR",
    "Assigned Class": "T"
  },
  {
    "Binder": "VQ8A9-6 (antibody, V domains shown, Human variable regions with mouse constant region (hybridoma-derived chimeric antibody); also called VQ8A9-6 mIgG1) VH: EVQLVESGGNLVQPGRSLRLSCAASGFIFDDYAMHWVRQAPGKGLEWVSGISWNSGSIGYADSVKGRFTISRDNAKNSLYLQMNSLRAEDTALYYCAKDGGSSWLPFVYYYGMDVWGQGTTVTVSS VL: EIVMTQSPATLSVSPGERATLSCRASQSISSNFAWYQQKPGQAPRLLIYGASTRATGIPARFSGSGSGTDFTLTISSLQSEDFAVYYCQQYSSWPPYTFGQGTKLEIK",
    "Assigned Class": "T"
  }
]

--- query ---
Is pIC50 for VQ8F11-21 (antibody, V domains shown, Human variable regions with mouse constant region; also called VQ8F11-21 mIgG2a) VH: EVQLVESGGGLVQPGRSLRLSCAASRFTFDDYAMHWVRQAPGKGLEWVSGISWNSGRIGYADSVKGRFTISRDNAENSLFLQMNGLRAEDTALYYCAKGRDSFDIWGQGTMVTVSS VL: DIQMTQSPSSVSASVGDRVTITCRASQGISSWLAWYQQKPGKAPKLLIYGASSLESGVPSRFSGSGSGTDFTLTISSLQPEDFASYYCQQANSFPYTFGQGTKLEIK at or above 10? T
